The measurements presented in this section are drawn from patent US20200087258A1.

Attribute: pIC50
Molecular target: INDY (Homo sapiens)
Test: 14C-citrate uptake in HepG2 cells endogenously expressing INDY (NaCT)
Type: cell-based
Conditions: endogenous INDY
Just the number, please; pIC50 means minus log10 of the concentration in mol/L.

Some compounds with recorded pIC50:
[
  {
    "CHEMICAL_STRUCTURE": "O=C(NCc1ccccn1)C1CCN(S(=O)(=O)c2cc(Cl)cc(C3CC3)c2)CC1",
    "pIC50": 7.00
  },
  {
    "CHEMICAL_STRUCTURE": "CC(C)(C)c1ccc(S(=O)(=O)N2CCC(C(=O)NCc3ccccn3)CC2)cc1",
    "pIC50": 5.96
  },
  {
    "CHEMICAL_STRUCTURE": "O=C(NCc1ccccc1)C1CCN(S(=O)(=O)c2cc(Cl)cc(Cl)c2)CC1",
    "pIC50": 7.00
  },
  {
    "CHEMICAL_STRUCTURE": "CC(C)(C)c1ccc(S(=O)(=O)N2CC(C(=O)NCc3ccccc3F)C2)cc1",
    "pIC50": 5.03
  },
  {
    "CHEMICAL_STRUCTURE": "CC(C)(C)c1ccc(S(=O)(=O)N2CCC(C(=O)NCc3ccccc3F)CC2)cc1",
    "pIC50": 6.00
  },
  {
    "CHEMICAL_STRUCTURE": "O=C(NCc1cccc(F)c1F)C1CCN(S(=O)(=O)/C=C/c2ccccc2)CC1",
    "pIC50": 5.15
  }
]

Proceed to the following item.
Challenge: Entry under review: O=C(NCc1ccccc1F)C1CCN(S(=O)(=O)c2cccc(Cl)c2)CC1 . Reported pIC50?
Response given: 6.05

* * *

Molecular target: INDY (Homo sapiens)
Assay: 14C-citrate uptake in HEK293 cells overexpressing recombinant human INDY (NaCT)
Type: cell-based
Design: expressed in transfected cells; host or cells: HEK293
MEASURE_NAME: IC50 (nM)
Expressed in nM, but write only the number.

Some molecules with recorded IC50:
[
  {
    "MOLECULE": "Nc1ccccc1CNC(=O)C1CCN(S(=O)(=O)c2cc(Cl)cc(Cl)c2)CC1",
    "EXPERIMENTAL_SYSTEM": "INDY (Homo sapiens)",
    "IC50 / nM": 400
  },
  {
    "MOLECULE": "Cc1ccc(S(=O)(=O)N2CCC(C(=O)NCc3ccccn3)CC2)cc1Cl",
    "EXPERIMENTAL_SYSTEM": "INDY (Homo sapiens)",
    "IC50 / nM": 18800
  }
]

Challenge: Entry under review: CC(F)c1cccc(S(=O)(=O)N2CCC(C(=O)NCc3ccccc3F)CC2)c1 (stereo not shown) . Reported IC50?
Response given: 1400

Challenge: What do we get for O=C(NCc1ccccc1O)C1CCN(S(=O)(=O)c2ccc(C(F)(F)F)cc2)CC1 ?
Response given: 1100

* * *

Molecular target: INDY (Homo sapiens, UniProt Q86YT5)
Sequence (Q86YT5 whole entry): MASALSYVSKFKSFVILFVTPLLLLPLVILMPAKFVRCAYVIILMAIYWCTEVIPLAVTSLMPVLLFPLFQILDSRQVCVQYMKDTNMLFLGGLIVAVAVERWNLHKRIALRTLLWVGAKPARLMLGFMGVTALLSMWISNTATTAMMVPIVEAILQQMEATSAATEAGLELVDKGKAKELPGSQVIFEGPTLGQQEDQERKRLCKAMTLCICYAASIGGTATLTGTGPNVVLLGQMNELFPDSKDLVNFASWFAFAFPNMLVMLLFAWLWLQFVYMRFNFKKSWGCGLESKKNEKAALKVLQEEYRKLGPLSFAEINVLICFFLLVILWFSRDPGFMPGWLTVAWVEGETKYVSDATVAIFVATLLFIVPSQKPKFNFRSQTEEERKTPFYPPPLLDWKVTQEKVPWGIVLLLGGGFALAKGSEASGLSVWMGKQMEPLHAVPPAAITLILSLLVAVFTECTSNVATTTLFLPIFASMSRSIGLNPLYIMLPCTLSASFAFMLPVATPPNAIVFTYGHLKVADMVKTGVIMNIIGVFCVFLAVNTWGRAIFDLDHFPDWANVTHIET
Assay: 14C-citrate uptake in HepG2 cells endogenously expressing INDY (NaCT)
Assay type: cell-based
Details: endogenous INDY
Protocol: The compound was obtained by screening of a library containing more than 50,000 lead-like compounds and fragments. The library was tested using a functional citrate uptake assay with HEK293 cells overexpressing recombinant human INDY. The following hit confirmation was conducted in the same assay system. […] In this assay system citrate uptake was measured using HepG2 cells which endogenously express INDY. […] INDY mediated citrate uptake was also determined in HepG2 cells. […]
Attribute: log10(IC50)
Short version: log10 scale, IC50, nM.

[
  {
    "COMPOUND": "COc1ccccc1CNC(=O)C1CCN(S(=O)(=O)c2ccc(C(C)(C)C)cc2)CC1 [Example 38]",
    "ENDPOINT_RESULT": 2.90
  },
  {
    "COMPOUND": "O=C(NCc1ccccc1F)C1CCN(S(=O)(=O)c2ccc(Cl)cc2)CC1 [Example 27]",
    "ENDPOINT_RESULT": 3.38
  },
  {
    "COMPOUND": "O=C(NCc1ccccc1CO)C1CCN(S(=O)(=O)c2cc(Cl)cc(Cl)c2)CC1 [Example 87]",
    "ENDPOINT_RESULT": 2.30
  },
  {
    "COMPOUND": "O=C(NCc1ccccn1)C1CCN(S(=O)(=O)c2ccc(Cl)cc2Cl)CC1 [Example 73]",
    "ENDPOINT_RESULT": 3.20
  },
  {
    "COMPOUND": "O=C(NCc1cccc(CO)c1)C1CCN(S(=O)(=O)c2cc(Cl)cc(Cl)c2)CC1 [Example 117]",
    "ENDPOINT_RESULT": 2.70
  },
  {
    "COMPOUND": "COc1ccc(S(=O)(=O)N2CCC(C(=O)NCc3ccccc3F)CC2)cc1 [Example 4]",
    "ENDPOINT_RESULT": 3.76
  }
]

Challenge: Entry under review: O=C(NCc1ccccc1F)C1CCN(S(=O)(=O)c2ccc3c(c2)OC(F)(F)O3)CC1 [Example 47] . Reported log10(IC50)?
Response given: 2.85

Challenge: What do we get for O=C(NCc1ccccc1F)C1CCN(S(=O)(=O)c2ccc(C(F)(F)F)cc2)CC1 [Example 25] ?
Response given: 2.48

Challenge: What do we get for O=C(NCc1ccccc1Br)C1CCN(S(=O)(=O)/C=C/c2ccccc2)CC1 [Example 32] ?
Response given: 3.83

Challenge: What do we get for Nc1ccccc1CNC(=O)C1CCN(S(=O)(=O)c2cc(Cl)cc(Cl)c2)CC1 [Example 81] ?
Response given: 2.00

Challenge: What do we get for O=C(NCc1ccccc1F)C1CCN(S(=O)(=O)c2ccc(I)cc2)CC1 [Example 36] ?
Response given: 3.00

Challenge: What do we get for O=C(NCc1ccccn1)C1CCN(S(=O)(=O)c2ccc(CC(F)(F)F)cc2)CC1 [Example 99] ?
Response given: 3.51

Challenge: What do we get for O=C(NCc1ccccn1)C1CCN(S(=O)(=O)c2cc(Cl)cc(Br)c2)CC1 [Example 96] ?
Response given: 2.48

Challenge: What do we get for O=C(NCc1ccccc1F)C1CCN(S(=O)(=O)c2ccc(Cl)cc2Cl)CC1 [Example 43] ?
Response given: 2.60

Challenge: What do we get for COc1ccccc1CNC(=O)C1CN(S(=O)(=O)c2ccc(C(C)(C)C)cc2)C1 [Example 50] ?
Response given: 3.85

Challenge: What do we get for O=C(NCc1ccc(O)cc1)C1CCN(S(=O)(=O)c2cc(Cl)cc(Cl)c2)CC1 [Example 123] ?
Response given: 3.11

Challenge: What do we get for O=C(NCc1ccccn1)C1CCN(S(=O)(=O)c2cc(F)cc(C(F)(F)F)c2)CC1 [Example 84] ?
Response given: 3.34

Challenge: What do we get for O=C(NCc1ccccc1O)C1CCN(S(=O)(=O)c2ccc(C(F)(F)F)cc2)CC1 [Example 82] ?
Response given: 2.78

Challenge: What do we get for O=C(NCc1ccccn1)C1CCN(S(=O)(=O)c2ccc(I)cc2)CC1 [Example 95] ?
Response given: 3.38

Challenge: What do we get for O=C(NCc1ccccn1)C1CN(S(=O)(=O)c2cc(Cl)cc(Cl)c2)C1 [Example 120] ?
Response given: 3.45

Challenge: What do we get for O=C(NCc1ccc(F)cc1)C1CCN(S(=O)(=O)c2cc(Cl)cc(Cl)c2)CC1 [Example 132] ?
Response given: 2.85

Challenge: What do we get for COc1cccc(S(=O)(=O)N2CCC(C(=O)NCc3ccccc3F)CC2)c1 [Example 16] ?
Response given: 3.18

Challenge: What do we get for O=C(NCc1ccccc1F)C1CCN(S(=O)(=O)c2ccc(OC(F)(F)F)cc2)CC1 [Example 29] ?
Response given: 2.60

Challenge: What do we get for CC(C)(C)c1ccc(S(=O)(=O)N2CC(C(=O)NCc3ccccc3Cl)C2)cc1 [Example 49] ?
Response given: 3.95

Challenge: What do we get for O=C(NCc1ccccn1)C1CCN(S(=O)(=O)/C=C/c2ccccc2)CC1 [Example 3] ?
Response given: 4.05

* * *

Attribute: pIC50
Target: INDY (Homo sapiens, UniProt Q86YT5)
Test: 14C-citrate uptake in HepG2 cells endogenously expressing INDY (NaCT)
Format: cell-based
Conditions: endogenous INDY
Just the number, please; pIC50 means minus log10 of the concentration in mol/L.

Some compounds with recorded pIC50:
[
  {
    "CHEMICAL_STRUCTURE": "O=C(NCc1ccccc1F)C1CCN(S(=O)(=O)c2cc(Cl)cc(Cl)c2)CC1",
    "pIC50": 7.00
  },
  {
    "CHEMICAL_STRUCTURE": "O=C(NCc1cccc(O)c1)C1CCN(S(=O)(=O)c2cc(Cl)cc(Cl)c2)CC1",
    "pIC50": 6.22
  }
]

Challenge: Entry under review: O=C(NCc1ccccn1)C1CCN(S(=O)(=O)c2cc(Cl)cc(Cl)c2)CC1 . Reported pIC50?
Response given: 6.40
